# Target Under Test: BrlR-DNA binding (PbrlR) (Pseudomonas aeruginosa, UniProt Q9HUT5)
# Construct: His6-SUMO (N, cleaved yes); made in house; host or cells: E. coli BL21 DE3
# Sequence (Q9HUT5 whole entry): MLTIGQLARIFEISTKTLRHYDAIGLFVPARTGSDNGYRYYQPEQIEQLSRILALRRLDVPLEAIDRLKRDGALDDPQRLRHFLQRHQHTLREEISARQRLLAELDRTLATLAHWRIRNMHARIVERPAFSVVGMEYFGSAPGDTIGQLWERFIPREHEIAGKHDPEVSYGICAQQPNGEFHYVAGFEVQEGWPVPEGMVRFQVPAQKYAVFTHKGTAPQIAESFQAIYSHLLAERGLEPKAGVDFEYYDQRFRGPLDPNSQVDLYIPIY
# Protocol Notes: EMSA, wild-type BrlR with PbrlR DNA
# Assay type: biochemical
# Condition Label: wild-type BrlR, increasing concentrations of compound
Quantity: effect on BrlR-PbrlR DNA binding (in words)

Nc1ncnc2c1ncn2[C@@H]1O[C@@H]2COP(=O)(O)O[C@H]3[C@@H](O)[C@H](n4cnc5c(N)ncnc54)O[C@@H]3COP(=O)(O)O[C@H]2[C@H]1O [c-di-AMP] | significantly promoted
Nc1nc2c(ncn2[C@@H]2O[C@@H]3COP(=O)(O)O[C@H]4[C@@H](O)[C@H](n5cnc6c(=O)[nH]c(N)nc65)O[C@@H]4COP(=O)(O)O[C@H]3[C@H]2O)c(=O)[nH]1 [c-di-GMP, cyclic diguanylate monophosphate] | significantly promoted

====

# Target Under Test: BrlR (Pseudomonas aeruginosa, UniProt Q9HUT5)
# Construct: His6-SUMO (N, cleaved yes); made in house; host or cells: E. coli BL21 DE3
# Protocol Notes: Fluorescence polarization (FP) binding assay, wild-type BrlR
# Condition Label: 1 nM fluorescent ligand, 25 °C
Quantity: Kd (µM)
Report the value in µM with no unit label.

-- ask Output Kd of O=C1OC2(c3ccc(O)cc3Oc3cc(O)ccc32)c2ccccc21 [fluorescein]
-- reply 33.6

====

# Target Under Test: BrlR (Pseudomonas aeruginosa)
# Construct: His6-SUMO (N, cleaved yes); made in house; host or cells: E. coli BL21 DE3
# Protocol Notes: Surface plasmon resonance (SPR) analysis
# Format: binding
# Condition Label: SPR, immobilized BrlR, steady state, 25 °C
# Protocol: The binding affinity of diverse toxic compounds for BrlR were investigated by SPR using a BIAcore-T200 apparatus (GE Healthcare). The ligand, BrlR (20 μM in 10 mM sodium acetate, pH 4.5), was immobilized on an activated CM5 sensor chip by amine coupling (BIAcore) with 4400 response units (RU), and the unreacted sites were blocked with 1.0 M ethanolamine–HCl (pH 8.5). […] Association was measured for 180 s, followed by 120 s of dissociation in running buffer (20 mM Hepes pH 7.5, 150 mM NaCl). […]
Quantity: Kd (µM)
Give the quantity in µM, number only.

-- ask Return Kd for the following compound: NC[C@H]1O[C@H](O[C@H]2[C@H](O)[C@@H](O[C@H]3O[C@H](CO)[C@@H](O)[C@H](N)[C@H]3O)[C@H](N)C[C@@H]2N)[C@H](N)C[C@@H]1O
-- reply 640

Sourced from paper PMC6028453
